Taken from patent US20240067758A1.

Readings of pKd for the listed binders
Biological target: T1, Human IL22 (human, UniProt Q9GZX6 34-179)
T1 construct: IL22 of the Biacore and cell assays
T1 sequence: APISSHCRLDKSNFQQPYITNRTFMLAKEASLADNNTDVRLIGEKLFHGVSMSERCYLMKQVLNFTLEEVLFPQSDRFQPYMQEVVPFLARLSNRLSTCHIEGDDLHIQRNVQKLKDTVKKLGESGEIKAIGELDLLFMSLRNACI
Experiment: SPR (Biacore); Fab variant, human IL22
Please report pKd as the negative decimal logarithm of the molar concentration, giving only the number.

Qu. Report pKd for 11041gL1 C91S gH9 (Fab, V domains shown, V-regions only; also called 11041gL2gH9) VH: EVQLVESGGGLVQPGGSLRLSCAASGFSLSSYAMIWVRQAPGKGLEWIGIIDIDGSTYYASWAKGRFTISRDSSKNTVYLQMNSLRAEDTAVYYCARDRFVGVDIFDPWGQGTLVTVSS VL: AVVLTQSPSSLSASVGDRVTITCQASEDIYTNLAWYQQKPGKAPKLLIYWASTLASGVPSRFSGSGSGTDFTLTISSLQPEDFATYYCQASVYGNSADSRYTFGGGTKVEIK please.
Ans. 10.94

Further cases:
Qu. Report pKd for 11041gL6 C91S gH5 D54E (Fab, V domains shown, also called 11041gL11gH14) VH: EVQLVESGGGLVQPGGSLRLSCAVSGFSLSSYAMIWVRQAPGKGLEWIGIIDIEGSTYYASWAKGRFTISRDNSKNTVYLQMNSLRAEDTAVYYCARDRFVGVDIFDPWGQGTLVTVSS VL: AVQLTQSPSSLSASVGDRVTITCQASEDIYTNLAWYQQKPGKAPKLLIYWASTLASGVPSRFSGSGSGTDFTLTISSLQPEDFATYYCQASVYGNSADSRYTFGGGTKVEIK please.
Ans. 10.79

Qu. Report pKd for 11041gL1 S96A gH1 (Fab, V domains shown, V-regions only; also called 11041gL9gH1) VH: EVQLVESGGGLVQPGGSLRLSCAVSGFSLSSYAMIWVRQAPGKGLEWIGIIDIDGSTYYASWAKGRFTISRDSSKNTVYLQMNSLRAEDTAVYYCARDRFVGVDIFDPWGQGTLVTVSS VL: AVVLTQSPSSLSASVGDRVTITCQASEDIYTNLAWYQQKPGKAPKLLIYWASTLASGVPSRFSGSGSGTDFTLTISSLQPEDFATYYCQACVYGNAADSRYTFGGGTKVEIK please.
Ans. 9.70
